Molecular target: Alpha-ketoglutarate-dependent dioxygenase alkB homolog 3 (Homo sapiens, UniProt Q96Q83)
Sequence (Q96Q83 whole entry): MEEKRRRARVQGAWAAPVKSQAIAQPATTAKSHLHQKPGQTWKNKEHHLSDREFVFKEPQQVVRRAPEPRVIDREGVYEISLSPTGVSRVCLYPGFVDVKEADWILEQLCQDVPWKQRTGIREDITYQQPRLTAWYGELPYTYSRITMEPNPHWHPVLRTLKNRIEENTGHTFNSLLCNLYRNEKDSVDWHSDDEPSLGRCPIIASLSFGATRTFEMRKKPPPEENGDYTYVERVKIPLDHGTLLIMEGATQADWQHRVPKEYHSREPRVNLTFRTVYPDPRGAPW
QUANTITY KIND: IC50 (µM)

(1) Cc1ccc2nc(-n3[nH]c(C)c(Cc4ccc(-c5ccccc5)cc4)c3=O)[nH]c2c1
(2) COc1ccc(Cc2c(C)[nH]n(-c3nc4ccccc4[nH]3)c2=O)cc1
(3) Cc1ccc2[nH]c(-n3[nH]c(C)c(Cc4ccccc4Cl)c3=O)nc2c1
Problem: Hi! Can you put these in order of IC50, lowest number first? To answer, write out the labels according to the requested order.
Solution: 2, 3, 1
